- Experimental Target: GPR39 (Homo sapiens, UniProt O43194)
- Sequence (O43194 1-453): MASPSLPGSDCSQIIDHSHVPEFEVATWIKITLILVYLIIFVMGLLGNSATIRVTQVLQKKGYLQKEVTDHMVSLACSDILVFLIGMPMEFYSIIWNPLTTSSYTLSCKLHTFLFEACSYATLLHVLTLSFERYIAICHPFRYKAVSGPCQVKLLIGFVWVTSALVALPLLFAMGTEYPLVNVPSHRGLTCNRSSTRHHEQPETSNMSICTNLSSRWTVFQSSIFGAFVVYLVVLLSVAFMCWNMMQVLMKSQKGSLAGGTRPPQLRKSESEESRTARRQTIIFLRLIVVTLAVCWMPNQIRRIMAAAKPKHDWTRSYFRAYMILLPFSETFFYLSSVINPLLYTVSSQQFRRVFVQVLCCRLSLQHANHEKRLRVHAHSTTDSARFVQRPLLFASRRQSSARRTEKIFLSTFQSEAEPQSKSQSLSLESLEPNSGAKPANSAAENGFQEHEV
- Method Notes: luciferase assay system (SRE luciferase reporter gene) for GPR39 in CV-1 cells
- Condition Context: EC50, CV-1 cells, GPR39 and SRE luciferase adenovirus, treated 6 hours, luminometer
Square brackets hold non-standard residues; d marks the D form. Peptide text beside a SMILES is read from it. * marks the point of attachment. His(Trt) = N[C@@H](Cc1cn(C(c2ccccc2)(c2ccccc2)c2ccccc2)cn1)C(=O)O; dPhe(4-Me) = Cc1ccc(C[C@@H](N)C(=O)O)cc1; Octanoyl = CCCCCCCC(=O)*; Boc = CC(C)(C)OC(=O)*
Parameter Measured: EC50 (nM)
State just the number; it will be interpreted in nM.

>>> quantitative_readout("CCCCCCCC(=O)NCCCC[C@H](NC(=O)[C@@H](N)Cc1cn(C(c2ccccc2)(c2ccccc2)c2ccccc2)cn1)C(=O)N[C@@H](Cc1ccccc1)C(=O)N[C@@H](Cc1ccc(O)cc1)C(=O)O [HKFY-1] (H-[His(Trt)]K(Octanoyl)FY-OH)")
150
>>> quantitative_readout("CCCCCCCC(=O)NCCCC[C@H](NC(=O)[C@H](Cc1c[nH]c2ccccc12)NC(=O)OC(C)(C)C)C(=O)N[C@H](Cc1ccc(C)cc1)C(=O)N[C@@H](Cc1ccc(O)cc1)C(=O)O [HKFY-78] (Boc-WK(Octanoyl)[dPhe(4-Me)]Y-OH)")
9
>>> quantitative_readout("CCCCCCCC(=O)NCCCC[C@H](NC(=O)[C@@H](N)Cc1cn(Cc2ccc(-c3ccccc3-c3nnn[nH]3)cc2)cn1)C(=O)N[C@H](Cc1ccc(C)cc1)C(=O)N[C@@H](Cc1ccc(O)cc1)C(=O)O [HKFY-77]")
7

Req: For the molecule shown here, CCCCCCCC(=O)NCCCC[C@H](NC(=O)[C@@H](N)Cc1c[nH]c(-c2ccccc2)n1)C(=O)N[C@H](Cc1ccc(C)cc1)C(=O)N[C@@H](Cc1ccc(O)cc1)C(=O)O [HKFY-57] , give the reported EC50.
Resp: 260

====

Parameter: ECmax (-fold induction over basal). Scope: all listed entries.
- Experimental Target: UniProt O43194
Square brackets hold non-standard residues; d marks the D form. Peptide text beside a SMILES is read from it. * marks the point of attachment. His(Trt) = N[C@@H](Cc1cn(C(c2ccccc2)(c2ccccc2)c2ccccc2)cn1)C(=O)O; dPhe(4-Cl) = N[C@H](Cc1ccc(Cl)cc1)C(=O)O; Octanoyl = CCCCCCCC(=O)*

Please review the following examples before continuing.
>>> result("CCCCCCCC(=O)NCCCC[C@H](NC(=O)[C@@H](N)Cc1cn(C(c2ccccc2)c2ccc(OC)cc2)cn1)C(=O)N[C@@H](Cc1ccccc1)C(=O)N[C@@H](Cc1ccc(O)cc1)C(=O)O (stereo partly shown) [HKFY-20]")
"20.26 ± 2.7 -fold induction over basal"
>>> result("CCCCCCCC(=O)NCCCC[C@H](NC(=O)[C@@H](N)Cc1cn(C(c2ccccc2)(c2ccccc2)c2ccccc2)cn1)C(=O)N[C@H](Cc1ccc(Cl)cc1)C(=O)N[C@H](Cc1ccc(O)cc1)C(=O)O [HKFY-15] (H-[His(Trt)]K(Octanoyl)[dPhe(4-Cl)][dY]-OH)")
"24.7 ± 2.6 -fold induction over basal"
>>> result("CCCCCCCC(=O)NCCCC[C@H](NC(=O)[C@@H](N)Cc1cn(-c2ccccc2)cn1)C(=O)N[C@H](Cc1ccc(C)cc1)C(=O)N[C@@H](Cc1ccc(O)cc1)C(=O)O [HKFY-58]")
"9.12 ± 2.1 -fold induction over basal"
>>> result("CCCCCCCC(=O)NCCCC[C@H](NC(=O)[C@H](Cc1cn(C(c2ccccc2)(c2ccccc2)c2ccccc2)cn1)NC(=O)[C@H](CO)NC(=O)CN)C(=O)N[C@@H](Cc1ccccc1)C(=O)N[C@@H](Cc1ccc(O)cc1)C(=O)O [HKFY-37] (H-GS[His(Trt)]K(Octanoyl)FY-OH)")
"16 ± 1.7 -fold induction over basal"

Req: For the molecule shown here, CCCCCCCC(=O)NCCCC[C@H](NC(=O)[C@@H](N)Cc1cn(C(c2ccccc2)(c2ccccc2)c2ccccc2)cn1)C(=O)N[C@@H](Cc1ccccc1)C(=O)O [HKFY-49] (H-[His(Trt)]-Lys(Octanoyl)-Phe-OH) , give the reported ECmax (-fold induction over basal).
Resp: 18.3 ± 1.8 -fold induction over basal

Req: For the molecule shown here, C[C@H](NC(=O)[C@H](CCC(N)=O)NC(=O)[C@H](CCC(N)=O)NC(=O)[C@H](CC(=O)O)NC(=O)[C@H](Cc1ccc(O)cc1)NC(=O)[C@H](Cc1ccccc1)NC(=O)[C@@H](N)Cc1cn(C(c2ccccc2)(c2ccccc2)c2ccccc2)cn1)C(=O)N[C@@H](CCCNC(=N)N)C(=O)N[C@@H](Cc1ccccc1)C(N)=O [HKFY-52] (H-[His(Trt)]FYDQQARF-NH2) , give the reported ECmax (-fold induction over basal).
Resp: 15.5 ± 2.2 -fold induction over basal

Req: For the molecule shown here, CCCCCCCC(=O)NCCCC[C@H](NC(=O)[C@@H](N)Cc1cn(C(c2ccccc2)(c2ccccc2)c2ccc(C)cc2)cn1)C(=O)N[C@@H](Cc1ccccc1)C(=O)N[C@@H](Cc1ccc(O)cc1)C(=O)O [HKFY-5] , give the reported ECmax (-fold induction over basal).
Resp: 16 ± 1.7 -fold induction over basal

Where do these numbers come from? They come from patent US20230212222A1.
